From: ChEMBL document CHEMBL4118040

Biological target: Proteasome Macropain subunit MB1 (Homo sapiens, UniProt P28074)
Sequence (P28074 whole entry): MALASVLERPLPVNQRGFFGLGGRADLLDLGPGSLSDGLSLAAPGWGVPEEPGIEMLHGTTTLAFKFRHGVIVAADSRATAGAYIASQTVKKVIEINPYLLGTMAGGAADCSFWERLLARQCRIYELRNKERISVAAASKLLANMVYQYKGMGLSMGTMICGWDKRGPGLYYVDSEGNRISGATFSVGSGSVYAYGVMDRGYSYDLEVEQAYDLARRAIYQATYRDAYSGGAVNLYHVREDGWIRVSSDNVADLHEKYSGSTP
Experiment: Inhibition of human erythrocyte 20s proteasome chymotrypsin-like activity using Suc-LLVY-MCA as substrate pretreated for 10 mins followed by substrate addition measured after 3 hrs by spectrophotometric method
pIC50: −log10 of the molar value.

- Chemical structure: "C=C1CC[C@H]2C(C)(C)[C@H](O)CC[C@]2(C)[C@H]1CC1=C(O)C(=O)C2=C(C1=O)[C@@]13C=C[C@@H](O)[C@H](O)[C@]1(C2)C(=O)c1c(O)cc(C)cc1C3=O"
  Target: "Proteasome Macropain subunit MB1 (Homo sapiens, UniProt P28074)"
  pIC50: 4.73
